Where do the numbers come from? From patent US20240139125A1.

assay: Cell viability for BIA and analogues, DU145 cell line; format: cell-based; conditions: human; DU145, 10 uM

# smi, viability at 10 µM / %
records = [
    ("Nc1ccccc1C(=O)/C=C/c1ccc(F)cc1F", 26.5),
    ("Nc1ccccc1C(=O)/C=C/c1ccncc1", 54.1),
    ("Nc1ccccc1C(=O)/C=C/c1ccc(OC(F)(F)F)cc1", 40.7),
    ("Nc1ccccc1C(=O)/C=C/c1cc(F)c(O)c(F)c1", 87.4),
    ("Cc1cccc(/C=C/C(=O)c2ccccc2N)c1", 88.4),
    ("Nc1ccccc1C(=O)/C=C/c1cccc(Br)c1", 81.5),
    ("Nc1ccccc1C(=O)/C=C/c1cc(O)cc(Br)c1", 77.4),
    ("Cc1ccc(/C=C/C(=O)c2ccccc2N)cc1", 43.3),
    ("CCOc1ccc([N+](=O)[O-])cc1/C=C/C(=O)c1ccccc1N", 53.1),
    ("N/C(=N\\O)c1cccc(/C=C/C(=O)c2ccccc2N)c1", 42.8),
    ("COc1cccc(/C=C/C(=O)c2cc(OC)c(OC)cc2N)c1", 76.3),
]

###

test: Cell viability for BIA and analogues, HT1080 cell line; type: cell-based; conditions: human, HT1080 fibrosarcoma cells, HT1080, 5 uM
Mark each entry 1 if its viability at 5 µM sits below 90%, and 0 for all others.

# molecule, label_class
rows = [
    ("Nc1ccccc1-c1cc(-c2cccc(C(F)(F)F)c2)ncn1", 0),
    ("Nc1ccccc1C(=O)/C=C/c1cc(F)c(O)c(F)c1 [GM-90316]", 0),
    ("Nc1ccccc1C(=O)/C=C/c1cccc(Cl)c1 [GM-90317]", 1),
    ("COc1cc(N)c(C(=O)/C=C/c2cccc(C#N)c2)cc1OC [GM-90319]", 1),
    ("COc1ccc(C(=O)/C=C/c2cccc([N+](=O)[O-])c2)c(N)c1 [GM-90297]", 0),
    ("COc1cc(N)c(C(=O)/C=C/c2cccc(C(F)(F)F)c2)cc1OC [GM-90320]", 0),
    ("N/C(=N\\O)c1cccc(/C=C/C(=O)c2ccccc2N)c1 [GM-90338]", 1),
    ("CCOc1ccc([N+](=O)[O-])cc1C(O)CC(=O)c1ccccc1N (stereo not shown) [GM-90230]", 0),
    ("Nc1ccccc1C(=O)/C=C/c1ccc(F)cc1F [GM-90223]", 0),
]

###

Reported values of viability at 5 µM for individual entries
test: Cell viability for BIA and analogues, HT1080 cell line; format: cell-based; details: human, HT1080 fibrosarcoma cells, HT1080, 5 uM

# smi, viability at 5 µM [%]
data = [
    ("Nc1ccccc1C(=O)/C=C/c1ccc(OC(F)(F)F)cc1", 109),
    ("Nc1ccccc1C(=O)/C=C/c1cccc(Br)c1", 100),
    ("CC(C)(C)c1ccc(/C=C/C(=O)c2ccccc2N)cc1", 66.8),
    ("COc1cc(N)c(C(=O)/C=C/c2cccc([N+](=O)[O-])c2)cc1OC", 14.7),
    ("Cc1cccc(/C=C/C(=O)c2ccccc2N)c1", 86.4),
    ("Nc1ccccc1C(=O)/C=C/c1cccnc1", 71.5),
    ("Nc1ccccc1C(=O)/C=C/c1ccncc1", 30.4),
    ("O=C(/C=C/c1cccc([N+](=O)[O-])c1)c1ccccc1O", 99.9),
    ("Nc1ccccc1C(=O)/C=C/c1ccccc1", 99.5),
    ("Cc1ccc(/C=C/C(=O)c2ccccc2N)cc1", 108),
    ("Nc1ccccc1C(=O)/C=C/c1ccc(C(F)(F)F)cc1", 83.9),
]
